Below is a list of entries, each paired with its recorded Ki value.
target: HPK full length, T165E S171E (Homo sapiens (Human), UniProt Q92918, S171E/T165E); experiment: HPK1-FL HTRF enzymatic assay ("HTRF"); assay type: biochemical; conditions: ATP 1 mM, read-out: HPK1 Ki
Sequence (Q92918 whole entry T165E/S171E, looked up): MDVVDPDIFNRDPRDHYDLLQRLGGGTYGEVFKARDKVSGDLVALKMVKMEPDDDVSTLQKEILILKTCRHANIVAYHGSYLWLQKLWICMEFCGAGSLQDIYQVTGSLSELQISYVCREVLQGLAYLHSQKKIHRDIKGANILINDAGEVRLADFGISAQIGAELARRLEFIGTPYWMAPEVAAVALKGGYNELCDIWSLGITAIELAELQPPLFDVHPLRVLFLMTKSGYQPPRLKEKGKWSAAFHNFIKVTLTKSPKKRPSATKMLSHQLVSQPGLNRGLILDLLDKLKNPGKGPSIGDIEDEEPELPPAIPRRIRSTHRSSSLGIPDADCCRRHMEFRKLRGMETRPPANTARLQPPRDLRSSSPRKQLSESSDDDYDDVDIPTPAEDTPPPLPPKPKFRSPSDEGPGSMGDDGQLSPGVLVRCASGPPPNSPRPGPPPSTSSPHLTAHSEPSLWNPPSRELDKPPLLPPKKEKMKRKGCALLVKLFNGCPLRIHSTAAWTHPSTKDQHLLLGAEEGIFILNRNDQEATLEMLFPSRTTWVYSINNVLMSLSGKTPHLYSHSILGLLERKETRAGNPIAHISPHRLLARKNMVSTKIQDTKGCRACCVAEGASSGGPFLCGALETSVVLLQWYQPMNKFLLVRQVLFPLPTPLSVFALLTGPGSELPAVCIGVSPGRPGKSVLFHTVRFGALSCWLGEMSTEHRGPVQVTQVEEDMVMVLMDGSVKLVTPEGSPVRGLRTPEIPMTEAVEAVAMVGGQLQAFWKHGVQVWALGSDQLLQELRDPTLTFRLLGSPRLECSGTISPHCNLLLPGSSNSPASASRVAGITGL
Give a bare numeral; the unit nM is implied.

CO[C@H]1CCC[C@H]1NC(=O)Nc1cc2cc(-c3cnc4c(c3C)NCCO4)c(F)c(N)c2cn1 (single isomer, unassigned) [Compound 729b]	0.015

# evaluate next
Please fill in: Ki reported for Cc1c(-c2cc3cc(NC(=O)OC[C@@]4(F)CCN(C)C4)ncc3c(N)c2F)cnc2c1NCCO2 (single isomer, unassigned) [Compound 451a] = 0.14

---

biological target: HPK full length, T165E S171E (Homo sapiens (Human), UniProt Q92918, S171E/T165E); experiment: HPK1-FL HTRF enzymatic assay ("HTRF"); assay type: biochemical; conditions: ATP 1 mM, read-out: HPK1 Ki
// assign Fulfilled if Ki falls strictly below 0.02 nM, else Not fulfilled (ties count as Not fulfilled)

Field: example entries. Status: answers known.
Cc1c(-c2cc3cc(NC(=O)N4CC5(CCOCC5)C4)ncc3c(N)c2F)cnc2c1NCCO2	Not fulfilled
Cc1c(-c2cc3cc(NC(=O)O[C@H]4COC[C@@H]4C#N)ncc3c(N)c2F)cnc2c1NCCO2 (single isomer, unassigned) [Compound 538b]	Fulfilled
Cc1c(-c2cc3cc(NC(=O)O[C@H]4C[C@H](C#N)C4)ncc3c(N)c2F)cnc2c1NCCO2 [Compound 484b]	Fulfilled
Cc1c(-c2cc3cc(NC(=O)SC4CCOCC4)ncc3c(N)c2F)cnc2c1NCCO2	Fulfilled
Cc1c(-c2cc3cc(NC(=O)O[C@@H]4CC(=O)N(C)C4)ncc3c(N)c2F)cnc2c1NCCC2 (single isomer, unassigned) [Compound 481b]	Fulfilled

Request: Answer whether the compound Cc1c(-c2cc3cc(NC(=O)O[C@@H]4CCN(C5COC5)C[C@@H]4F)ncc3c(N)c2F)cnc2c1NCCO2 [Compound 445c] has Ki strictly less than 0.02 nM
Response: Fulfilled

---

experiment: Pharmacokinetic study in rat; type: in vivo, Sprague Dawley rat; details: male, Sprague Dawley, plasma, PO 5 mg/kg, MCT, pH = 2.5, Suspension
MEASURED_QUANTITY: bioavailability (%)
Numbers only here, please. The scale is %.

Briefly, bioavailability measured for Cc1c(-c2cc3cc(NC(=O)O[C@@H]4CCC[C@H]4C#N)ncc3c(N)c2F)cnc2c1NCCO2 (single isomer, unassigned) [Compound 482a] : 41

---

experiment: Pharmacokinetic study in rat; format: in vivo, Sprague Dawley rat; conditions: male, Sprague Dawley, plasma, PO 5 mg/kg, MCT, Suspension
MEASURED_QUANTITY: bioavailability (%)
Answer format: numeric, % implied, no suffix.

Recorded result, Cc1c(-c2cc3cc(NC(=O)OC4CCOCC4)ncc3c(N)c2F)cnc2c1NCCO2 , bioavailability: 16

---

biological target: HPK full length, T165E S171E (Homo sapiens (Human), UniProt Q92918, S171E/T165E); test: HPK1-FL HTRF enzymatic assay ("HTRF"); format: biochemical; conditions: ATP 1 mM, read-out: HPK1 Ki
MEASURED_QUANTITY: Ki (nM)
Numbers only here, please. The scale is nM.

Use the examples below as a reference point.
CO[C@@H]1COCC[C@@H]1OC(=O)Nc1cc2cc(-c3cnc4c(c3C)NCCO4)c(F)c(N)c2cn1 (single isomer, unassigned) [Compound 583c]	0.099
Cc1c(-c2cc3cc(NC(=O)O[C@H]4COCCN(C)C4)ncc3c(N)c2F)cnc2c1NCCO2 (single isomer, unassigned) [Compound 440a]	0.084
Cc1c(-c2cc3cc(NC(=O)OC4CCN(C)CC4(C)C)ncc3c(N)c2F)cnc2c1NCCO2 (centres unmarked)	0.187
Cc1c(-c2cc3cc(NC(=O)OC4CCOCC4)ncc3c(N)c2F)cnc2c1[C@H](O)CCO2 (single isomer, unassigned) [Compound 412b]	0.29
CNC(=O)Nc1cc2cc(-c3cnc4c(c3C)NCCC4)c(F)c(N)c2cn1	0.15

Now turn to the next compound.
Hey, HPK full length, T165E S171E (Homo sapiens (Human), UniProt Q92918, S171E/T165E) data for Cc1c(N)cncc1-c1cc2cc(NC(=O)NC3CCCC3)ncc2c(N)c1F : Ki came out at 0.102

---

# key: entry, value: pKi
molecular target: HPK full length, T165E S171E (Homo sapiens (Human), UniProt Q92918, S171E/T165E); test: HPK1-FL HTRF enzymatic assay ("HTRF"); type: biochemical; conditions: ATP 1 mM, read-out: HPK1 Ki
Give only the number. pKi is defined as minus log10 of concentration in molar units.

Reference set (5 entries):
Cc1c(-c2cc3cc(NC(=O)O[C@@H]4COC[C@H]4C#N)ncc3c(N)c2F)cnc2c1NCCO2 (single isomer, unassigned) [Compound 538a]	10.24
Cc1c(-c2cc3cc(NC(=O)N(C)C)ncc3c(N)c2F)cnc2c1NCCO2 [Compound 742]	8.95
Cc1c(-c2cc3cc(NC(=O)O[C@@H]4CN(C)C(=O)C4(C)C)ncc3c(N)c2F)cnc2c1NCCO2 (single isomer, unassigned) [Compound 480a]	10.47
Cc1c(-c2cc3cc(NC(=O)N4CC(C)(F)C4)ncc3c(N)c2F)cnc2c1NCCO2 [Compound 755]	10.05
CO[C@@H]1COCC[C@H]1OC(=O)Nc1cc2cc(-c3cnc4c(c3C)NCCO4)c(F)c(N)c2cn1 (single isomer, unassigned) [Compound 583d]	9.14

Lookup result for Cc1c(-c2cc3cc(NC(=O)O[C@H]4CC[C@@H](O)C4)ncc3c(N)c2F)cnc2c1NCCO2 (single isomer, unassigned) [Compound 582a] ; measured pKi: 10.70

Memo: Cc1c(-c2cc3cc(NC(=O)O[C@H]4COC[C@@H]4C)ncc3c(N)c2F)cnc2c1NC[C@@H](F)O2 (single isomer, unassigned) [Compound 567b] , reported pKi: 9.92

---

Listed here: items and their measured Papp at 2 h, 10 μM.
assay: Permeability assay in gMDCKI cells; format: in vitro ADME, canine; settings: dog, MDCK, apical-to-basolateral, 2-hour incubation, read-out: MDCK AB Papp
Write it as a number; the unit ×10⁻⁶ cm/s goes unstated.

Some molecules with recorded Papp at 2 h, 10 μM:
Cc1c(-c2cc3cc(NC(=O)O[C@H]4COC[C@@H]4C)ncc3c(N)c2F)cnc2c1NCCO2 (single isomer, unassigned) [Compound 441b]	15
CNc1cncc(-c2cc3cc(NC(=O)OC4CC(C)(O)C4)ncc3c(N)c2F)c1C (centres unmarked) [Compound 527]	13
Cc1c(-c2cc3cc(NC(=O)O[C@@H]4COC[C@@H]4F)ncc3c(N)c2F)cnc2c1NCCO2 (single isomer, unassigned) [Compound 477d]	16
Cc1c(-c2cc3cc(NC(=O)N4CC(C)C4)ncc3c(N)c2F)cnc2c1NCCO2 [Compound 751]	11

Please look at the following molecule next.
Query CO[C@H]1COC[C@@H]1OC(=O)Nc1cc2cc(-c3cnc4c(c3C)NCCO4)c(F)c(N)c2cn1 (single isomer, unassigned) [Compound 546a] yields Papp at 2 h, 10 μM of 10

---

Below, each entry is listed with its recorded Ki.
target: HPK full length, T165E S171E (Homo sapiens (Human), UniProt Q92918, S171E/T165E); assay: HPK1-FL HTRF enzymatic assay ("HTRF"); format: biochemical; details: ATP 1 mM, read-out: HPK1 Ki
Express it in nM; write the number only.

Cc1c(-c2cc3cc(NC(=O)O[C@@H]4CCNC4)ncc3c(N)c2F)cnc2c1NCCO2 (single isomer, unassigned) [Compound 405a]	0.138
Cc1c(-c2cc3cc(NC(=O)N[C@@H]4CCOC4)ncc3c(N)c2F)cnc2c1NCCC2 [Compound 719a]	0.016
Cc1c(-c2cc3cc(NC(=O)N[C@@H]4CCN(C)C[C@H]4F)ncc3c(N)c2F)cnc2c1NCCO2 (single isomer, unassigned) [Compound 703a]	0.022
Cc1c(-c2cc3cc(NC(=O)O[C@H]4C[C@@](C)(C#N)C4)ncc3c(N)c2F)cnc2c1NCCO2 [Compound 537a]	0.015

Lab book: Ki of CO[C@H]1COCC[C@H]1OC(=O)Nc1cc2cc(-c3cnc4c(c3C)NCCO4)c(F)c(N)c2cn1 (single isomer, unassigned) [Compound 583b] noted as 0.021

Lookup result for Cc1c(-c2cc3cc(NC(=O)OC4CN(CCF)C4)ncc3c(N)c2F)cnc2c1NCCO2 ; measured Ki: 0.11

Kindly note the recorded Ki for Cc1c(-c2cc3cc(NC(=O)O[C@H](C)CN(C)C)ncc3c(N)c2F)cnc2c1NCCO2 (single isomer, unassigned) [Compound 523a] , which is 0.85

// Cc1c(-c2cc3cc(NC(=O)O[C@@H]4CCN([C@@H]5CCOC5)C[C@@H]4F)ncc3c(N)c2F)cnc2c1NCCO2 [Compound 569b] : Ki value = 0.254

Values compiled from patent US11612606B2.
